System: OVCAR-8 ovarian
Experiment: NCI-60 one-dose screen, 48 h
Conditions: 10 µM unless noted
Compounds without any hit were thinned out: in the full panel of roughly 83,000, 20% have a hit. Active and inactive are the calls of the source. The calls were made as follows: active = growth percent below 10; inactive = the rest.
Classes used: yes (1) = active, no (0) = inactive

[
  {
    "Molecule": "O=C(Nc1ccc(Oc2cccc(Cl)c2)c(Cl)c1)c1cccnn1",
    "Study Target": "OVCAR-8 ovarian",
    "Class Label": "no (0)"
  },
  {
    "Molecule": "O=Nc1ccc(NC(=O)Nc2ccc([N+](=O)[O-])cc2)cc1",
    "Study Target": "OVCAR-8 ovarian",
    "Class Label": "no (0)"
  },
  {
    "Molecule": "COc1ccc(CNc2ccc3nc(NC(=O)CN4CCCCCC4)sc3c2)cc1",
    "Study Target": "OVCAR-8 ovarian",
    "Class Label": "no (0)"
  },
  {
    "Molecule": "O=C(Oc1ccc2c(c1)sc1nc(-c3ccccc3)[nH]c(=O)c12)C(F)(F)F",
    "Study Target": "OVCAR-8 ovarian",
    "Class Label": "no (0)"
  },
  {
    "Molecule": "c1ccc2cc(Cn3cc(CSc4nc5ccccc5s4)nn3)ccc2c1",
    "Study Target": "OVCAR-8 ovarian",
    "Class Label": "no (0)"
  },
  {
    "Molecule": "COc1ccc(C(O)c2cc3c(N)c(C(=O)Nc4cccc5ccccc45)sc3nc2C)cc1 (centres undefined)",
    "Study Target": "OVCAR-8 ovarian",
    "Class Label": "no (0)"
  },
  {
    "Molecule": "c1ccc(Nc2nc3c(s2)CCc2c[nH]cc2-3)nc1",
    "Study Target": "OVCAR-8 ovarian",
    "Class Label": "no (0)"
  },
  {
    "Molecule": "C=C1C(=O)O[C@H]2[C@H]1CC/C(CNC(=O)Cc1c[nH]c3ccccc13)=C\\CC[C@@]1(C)O[C@@H]21",
    "Study Target": "OVCAR-8 ovarian",
    "Class Label": "yes (1)"
  },
  {
    "Molecule": "COc1ccc(Nc2ncc(I)c(NCCCNC(=O)C3CCC3)n2)cc1",
    "Study Target": "OVCAR-8 ovarian",
    "Class Label": "no (0)"
  }
]

Every entry's value here was drawn from PubChem BioAssay (NCI).
